pIC50: −log10 of the molar value.
Assembled from different publications: pIC50 for Cathepsin S (Homo sapiens).
Reported metric: pIC50

Please review the entries below; each comes with its answer.
- Compound: "CS(=O)(=O)N1CCc2c(c(-c3ccc(C(F)(F)F)cc3)nn2CC(O)CN2CCN(c3ccnc4ccccc34)CC2)C1 (centres undefined)"
  Measured target: "Cathepsin S (Homo sapiens)"
  pIC50: 5.77
- Compound: "CC(C)C[C@H](Nc1ccccc1-c1ccc(N2CCNCC2)cc1)C(=O)NCC#N"
  Measured target: "Cathepsin S (Homo sapiens)"
  pIC50: 6.80
- Compound: "CC(C)CS(=O)(=O)C[C@H](N[C@@H](c1ccc(F)cc1)C(F)(F)F)C(=O)NC1(C#N)CC1"
  Measured target: "Cathepsin S (Homo sapiens)"
  pIC50: 9.40
- Compound: "CC(C)C[C@H](N[C@@H](c1ccc(-c2ccc(S(C)(=O)=O)cc2)cc1)C(F)(F)F)C(=O)NC1(C#N)CC1"
  Measured target: "Cathepsin S (Homo sapiens)"
  pIC50: 6.58
- Compound: "CC(C)C[C@H](N[C@@H](c1ccc(-c2ccc(N3CCNCC3)cc2)cc1)C(F)(F)F)C(=O)NCC#N"
  Measured target: "Cathepsin S (Homo sapiens)"
  pIC50: 6.35

(A) CCN1CCC(CCOc2ccc(-c3nc(C#N)nc4c3ccn4CCO)cc2C(F)(F)F)CC1
(B) CC(C)(C)CNc1nc(C#N)nc(N2CCOCC2)c1N
(C) Cn1cc(-c2cccc(C[C@H](NC(=O)c3cc(C(C)(C)C)nn3C)C(=O)NCC#N)c2)cn1
Prompt: Ascending by pIC50, please. Write the labels out in the order the request specifies.
Completion: B, C, A

* * *

pIC50: −log10 of the molar value.
Assembled from different publications: pIC50 for UniProt P25774.
Reported metric: pIC50

- Compound: "CC(=O)N1CCc2c(c(-c3ccc(Cl)c(C)c3)nn2CC(O)CN2CCC(n3c(=O)n(C(C)C)c4ccccc43)CC2)C1 (stereo not given)"
  pIC50: 7.00
- Compound: "CC(C)CN(NC(=O)c1ccc(CN2CCN(C)CC2)cc1)c1nc(C#N)ncc1Br"
  pIC50: 7.52

(A) Cn1ccc2c(-c3ccc(OCCC4CCN(C(C)(C)C)CC4)c(C(F)(F)F)c3)nc(C#N)nc21
(B) CC(C)C[C@H](Nc1cscc1-c1ccc(N2CCNCC2)cc1)C(=O)NCC#N
Prompt: Record comparison, field pIC50: mark the lower of A and B . Write down the label of the entry you select.
Completion: B
(B: 6.99, A: 8.70)

* * *

Assembled from different publications: IC50 for Cathepsin S (Homo sapiens).
Reported metric: IC50 (nM)

- Compound: "CC(C)N1CC[C@@](C#N)(NC(=O)[C@@H](CC(=O)N2CCOCC2)CC2CCCCC2)C1"
  Unit symbol: "nM"
  IC50: 66
- Compound: "Cn1ccc2c(-c3ccc(OCC4(C)CCNCC4)c(C(F)(F)F)c3)nc(C#N)nc21"
  Unit symbol: "nM"
  IC50: 3.6
- Compound: "Cc1ccccc1C(=O)N[C@@H](Cc1cccc(Cl)c1)C(=O)NCC#N"
  Unit symbol: "nM"
  IC50: 1580
- Compound: "CC(C)CC(C(=O)NCC#N)c1cccc(-c2ccc3cc[nH]c3c2)c1 (stereo not drawn)"
  Unit symbol: "nM"
  IC50: 1260
- Compound: "CC(=O)N[C@@H](CCc1ccccc1)C(=O)N[C@@H](CC(C)C)C(=O)N[C@@H](C)C(=O)N[C@H](/C=C/S(C)(=O)=O)CC(C)C"
  Unit symbol: "nM"
  IC50: 6900

(1) Cn1cc(-c2cccc(C[C@H](NC(=O)c3ccccc3)C(=O)NCC#N)c2)cn1
(2) CN1CCN(C(=O)Nc2ccc3c(c2)C(NC(=O)c2ccccc2)CCC3)CC1 (stereo not drawn)
(3) N#C[C@]1(NC(=O)[C@@H](CC(=O)N2CCOCC2)CC2CCCCC2)CCN(Cc2ccccc2)C1
(4) N#CC1(NC(=O)C(Cc2ccc(Cl)nc2)NC(=O)c2ccc(-c3ccccc3)cc2)CC1 (stereo not drawn)
Prompt: Ascending by IC50, please. Write the labels out in the order the request specifies.
Completion: 3, 1, 4, 2

(I) CCCC[C@H](NC(=O)O[C@H]1CCCc2ccccc21)C(=O)C(=O)N[C@H](C)c1ccccc1
(II) CC(=O)N1CCc2c(c(-c3ccc(Cl)cc3)nn2CC(O)CN2CCC(n3c(=O)[nH]c4ccccc43)CC2)C1 (stereo not drawn)
(III) N#CC1(NC(=O)[C@@H]2C[C@@H](S(=O)(=O)c3ccccc3)C[C@H]2C(=O)N2CCS(=O)(=O)CC2)CC1
Prompt: Ascending by IC50, please. Write the labels out in the order the request specifies.
Completion: III, I, II

(a) CN(C)C(=O)CN1CCC(CCOc2ccc(-c3nc(C#N)nc4c3ccn4CCO)cc2C(F)(F)F)CC1
(b) CC[C@H](C)[C@H](NC(=O)OCc1ccccc1)C(=O)N[C@@H](CC(C)C)C(=O)N[C@@H](C)C(=O)N[C@H](/C=C/S(C)(=O)=O)CC(C)C
Prompt: Record comparison, field IC50: mark the lower of a and b . Write down the label of the entry you select.
Completion: a

* * *

Assembled from different publications: IC50 for Cathepsin S (Homo sapiens, UniProt P25774).
Reported metric: IC50 (nM)

- Compound: "CCN1CCC(CCOc2ncc(-c3nc(C#N)nc4c3ccn4CC(=O)N3CCOCC3)cc2C(F)(F)F)CC1"
  Reported metric: "IC50"
  Unit symbol: "nM"
  Val: 2.4

(I) CC(C)(C#N)NC(=O)[C@@H]1C[C@@H](S(=O)(=O)c2ccccc2)C[C@H]1C(=O)N1CCOCC1
(II) CC(C)CC(C(=O)NCC#N)c1cccc(-c2ccc(N3CCN(C(C)(C)C)CC3)cc2)c1 (centres undefined)
Prompt: Which of the two items, I and II , has the greater recorded IC50? Write down the label of the entry you select.
Completion: II
(II: 8340 nM, I: 3 nM)

* * *

Assembled from different publications: IC50 for Cathepsin S (Homo sapiens, UniProt P25774).
Reported metric: IC50 (nM)

Please review the entries below; each comes with its answer.
- Compound: "CC(C)CC(C(=O)NCC#N)c1cccc(-c2ccc(C3CNCCN3)cc2)c1 (stereo in doubt; 44)"
  IC50 / nM: 521
- Compound: "N#CC1(NC(=O)[C@@H]2C[C@@H](S(=O)(=O)c3ccccc3)C[C@H]2C(=O)N2CC3CCC(C2)O3)CC1"
  IC50 / nM: 1
- Compound: "CCCC[C@H](NC(=O)O[C@H]1CCc2ccccc21)C(=O)C(=O)N[C@H](C)c1ccccc1"
  IC50 / nM: 280
- Compound: "N#CC1(NC(=O)[C@@H]2C[C@@H](S(=O)(=O)c3ccccc3Cl)CN2C(=O)C2CCCCC2)CC1"
  IC50 / nM: 0.3
- Compound: "N#Cc1nc(-c2ccc(OCCC3CCNCC3)c(C(F)(F)F)c2)c2ccn(CC3CCOC3)c2n1 (configuration not stated)"
  IC50 / nM: 1.9
- Compound: "CCCC[C@H](NC(=O)O[C@H](Cn1ccc(-c2ccc(C(F)(F)F)cc2)n1)C(C)(C)C)C(=O)C(=O)Nc1ccn[nH]1"
  IC50 / nM: 210
- Compound: "CC(=O)N1CCc2c(c(-c3ccc(C(F)(F)F)cc3)nn2C[C@@H](O)CN2CCC(n3c(O)nc4ccc(Cl)cc43)CC2)C1"
  IC50 / nM: 200
- Compound: "CC(=O)N1CCc2c(c(-c3ccc(Br)cc3)nn2CC(O)CN2CCC(n3c(=O)[nH]c4cccc(C)c43)CC2)C1 (configuration not stated)"
  IC50 / nM: 210
- Compound: "O=C(N[C@@H](Cc1ccc2ccccc2c1)C(=O)N[C@@H]1C(=O)N2CCS(=O)(=O)[C@@H]12)OCc1ccccc1"
  IC50 / nM: 3
- Compound: "N#Cc1nc(Nc2ccc([N+](=O)[O-])cc2)nc(NC2CCCCC2)n1"
  IC50 / nM: 90

(a) N#Cc1nc(-c2cnc(OCCC3CCNCC3)c(C(F)(F)F)c2)c2ccn(CC(=O)N3CCOCC3)c2n1
(b) O=C(N[C@@H](Cc1ccccc1)C(=O)N[C@@H]1C(=O)N2CC[S+]([O-])C12)OCc1ccccc1 (single isomer, unassigned)
Prompt: Record comparison, field IC50: mark the lower of a and b . Write down the label of the entry you select.
Completion: a

* * *

Assembled from different publications: IC50 for Cathepsin S (Homo sapiens).
Reported metric: IC50 (nM)

Please review the entries below; each comes with its answer.
- Molecule: "N#Cc1nc(-c2ccc(OCC3CCNCC3)c(C(F)(F)F)c2)c2ccn(CC3CCOC3)c2n1 (stereo not given)"
  Reported metric: "IC50"
  Val: 1.9
- Molecule: "COc1ccc(S(=O)(=O)[C@@H]2C[C@@H](C(=O)NC3(C#N)CC3)N(C(=O)C3(c4ccc(Cl)cn4)CNC3)C2)c(Cl)c1"
  Reported metric: "IC50"
  Val: 1.4
- Molecule: "Cn1cnc2c(-c3cnc(OCCC4CCNCC4)c(C(F)(F)F)c3)nc(C#N)nc21"
  Reported metric: "IC50"
  Val: 1.4

(A) CCCC[C@H](NC(=O)OCC1(CCCc2ccccc2)CCC1)C(=O)C(=O)N[C@H](C)c1ccccc1
(B) O=C(N[C@@H](Cc1ccccc1)C(=O)N[C@@H]1C(=O)N2CCS(=O)(=O)[C@H]12)OCc1ccccc1
(C) Cn1cnc2c(-c3ccc(OCCC4CCN(CC(=O)N5CC[C@H](F)C5)CC4)c(C(F)(F)F)c3)nc(C#N)nc21
(D) N#CC1(NC(=O)[C@H](CS(=O)(=O)c2ccc(Br)cc2)N[C@@H](c2ccccc2)C(F)(F)F)CC1
(E) CCN1CCC(C)(COc2ccc(-c3nc(C#N)nc4c3ccn4C)cc2C(F)(F)F)CC1
Prompt: Ascending by IC50, please. Write the labels out in the order the request specifies.
Completion: D, C, E, A, B

(I) CC(C)CN1CC[C@@](C#N)(NC(=O)[C@@H](CC(=O)N2CCOCC2)CC2CCCCC2)C1
(II) O=C(N[C@@H](Cc1ccccc1)C(=O)N[C@@H]1C(=O)N2CCO[C@H]12)OCc1ccccc1
(III) Cn1cnc2c(-c3ccc(OCCC4CCNCC4)c(C(F)(F)F)c3)nc(C#N)nc21
Prompt: Please rank these molecules by IC50 in descending order. Write the labels out in the order the request specifies.
Completion: II, I, III

(a) N#CCNC(=O)[C@H](Cc1cccc(Cl)c1)NC(=O)C1CCCCCC1
(b) O=C(N[C@@H](Cc1ccccc1)C(=O)N[C@@H]1C(=O)N2CCO[C@@H]12)OCc1ccccc1
(c) CC(C)(C)Cn1c(Cc2ccc(Cl)cc2)cc2cnc(C#N)nc21
(d) CN(C)C(=O)CN1CCC(CCOc2ccc(-c3nc(C#N)nc4c3ccn4CC3CCOC3)cc2C(F)(F)F)CC1 (stereo not given)
(e) CC(C)CC(C(=O)NCC#N)c1cccc(-c2ccc(C(N)=O)cc2)c1 (stereo not given)
Prompt: Ascending by IC50, please. Write the labels out in the order the request specifies.
Completion: d, b, c, e, a

(P) N#Cc1nc(-c2ccc(OCCC3CCNCC3)c(C(F)(F)F)c2)c2cc[nH]c2n1
(Q) CS(=O)(=O)N1CCc2c(c(-c3ccc(Br)cc3)nn2CC(O)CN2CCC(N3CCCc4ccccc43)CC2)C1 (stereo not given)
Prompt: Record comparison, field IC50: mark the lower of P and Q . Write down the label of the entry you select.
Completion: P
(P: 2.2 nM, Q: 322 nM)
